# subjectOfTest: PLK4 (h) (Homo sapiens, UniProt O00444)
# Sequence (O00444 whole entry): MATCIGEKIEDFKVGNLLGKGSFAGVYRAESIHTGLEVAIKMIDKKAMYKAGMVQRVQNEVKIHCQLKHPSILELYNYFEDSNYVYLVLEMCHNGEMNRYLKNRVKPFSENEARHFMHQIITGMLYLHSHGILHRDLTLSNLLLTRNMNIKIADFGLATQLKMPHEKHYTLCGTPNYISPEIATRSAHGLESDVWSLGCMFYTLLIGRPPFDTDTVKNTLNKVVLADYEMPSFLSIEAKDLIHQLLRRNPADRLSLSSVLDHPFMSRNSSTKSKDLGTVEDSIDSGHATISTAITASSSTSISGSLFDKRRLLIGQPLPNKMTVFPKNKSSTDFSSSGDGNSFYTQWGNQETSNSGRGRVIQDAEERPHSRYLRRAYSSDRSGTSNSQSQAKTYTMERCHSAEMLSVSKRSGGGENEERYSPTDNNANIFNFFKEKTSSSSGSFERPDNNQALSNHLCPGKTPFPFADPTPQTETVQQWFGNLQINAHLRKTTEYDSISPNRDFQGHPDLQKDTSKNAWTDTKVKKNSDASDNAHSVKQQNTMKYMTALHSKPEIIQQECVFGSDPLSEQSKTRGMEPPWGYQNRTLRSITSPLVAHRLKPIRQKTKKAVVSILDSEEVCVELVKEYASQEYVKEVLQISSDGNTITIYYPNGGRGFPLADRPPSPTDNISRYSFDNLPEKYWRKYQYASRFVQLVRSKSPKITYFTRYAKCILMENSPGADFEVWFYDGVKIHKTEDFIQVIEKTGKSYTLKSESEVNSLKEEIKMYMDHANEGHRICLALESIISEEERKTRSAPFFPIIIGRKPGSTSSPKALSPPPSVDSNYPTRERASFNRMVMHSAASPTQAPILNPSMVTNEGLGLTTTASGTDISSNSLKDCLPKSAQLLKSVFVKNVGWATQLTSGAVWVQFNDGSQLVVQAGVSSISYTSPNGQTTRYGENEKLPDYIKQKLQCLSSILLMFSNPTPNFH
# testDetails: PLK-4 human kinase scintillation proximity assay (SPA)
# Format: biochemical
# runConditions: 1 μM ATP, 60 minutes at r.t., read-out: PLK4 pIC50 (converted)
assayReadout: IC50 (nM)

Reference set, count: 5
COc1ccc2cc1OCCCC(=O)N(C)CC1CN(Cc3c[nH]c4ncnc(c34)N2)C1 [Compound 73]
200
CN1CCCN(C)C(=O)COc2cc(ccc2OCCN2CCCCC2)Nc2ncnc3[nH]cc(c23)C1 [Compound 136]
251
COc1ccc2cc1OCC(=O)N[C@H](CO)CN(C)CCCc1c[nH]c3ncnc(c13)N2 [Compound 3]
1580
COc1ccc2cc1OCC(=O)N(C)CCN(C)CCCc1c[nH]c3ncnc(c13)N2 [Compound 60]
1000
CN1CCN(C)C(=O)COc2cc(ccc2Cl)Nc2ncnc3[nH]cc(c23)C1 [Compound 98]
100

A: COc1ccc2cc1OCCCC(=O)N(C)CCN(C)Cc1c[nH]c3ncnc(c13)N2 [Compound 1]
B: COc1ccc2cc1OCCCC(=O)N1CCN(CC1)Cc1c[nH]c3ncnc(c13)N2 [Compound 105]
Please tell me which of the two, A or B , has the higher reported IC50 value. Please reply using the label of the selected record.
B

a: CN1CCCN(C)C(=O)CCc2cccc(c2)Nc2ncnc3[nH]cc(c23)C1 [Compound 21]
b: CN1CCN(C)C(=O)CCCOc2cccc(c2)Nc2ncnc3[nH]cc(c23)C1 [Compound 31]
c: CN1CCCN(C)C(=O)COc2cc(cc(C(F)(F)F)c2)Nc2ncnc3[nH]cc(c23)C1 [Compound 54]
Exam item: list the entries in increasing order of IC50. // format: requested-order list of labels
c, a, b

====

# System: H1299
# testDetails: Cellular proliferation assay (Alamar blue), H1299
# Format: cell-based
# runConditions: Homo sapiens, NCI-H1299, H1299 cells; 10% FCS; 72 h with compound; Alamar blue 4 h; read-out: pIC50 H1299 (converted)
assayReadout: IC50 (nM)

Reference set, count: 2
CN1CCCN(C)C(=O)COc2cc(ccc2OCC(=O)NC2CCCCC2)Nc2ncnc3[nH]cc(c23)C1 [Compound 118]
1580
CN1CCCN(C)C(=O)COc2cc(ccc2NC(=O)Nc2cc(Cl)cc(Cl)c2)Nc2ncnc3[nH]cc(c23)C1 [Compound 115]
1580

A: CN1CCCN(C)C(=O)COc2cc(ccc2N2CCOCC2)Nc2ncnc3[nH]cc(c23)C1 [Compound 85]
B: CCOCCOc1ccc2cc1OCC(=O)N(C)CCCN(C)Cc1cn(C)c3ncnc(c13)N2 [Compound 81]
C: CN1CCCN(C)C(=O)COc2cccc(c2)Nc2ncnc3[nH]cc(c23)C1 [Compound 120]
Exam item: list the entries in increasing order of IC50. // format: requested-order list of labels
B, C, A

====

# System: H1299
# testDetails: Cellular proliferation assay (Alamar blue), H1299
# Assay type: cell-based
# runConditions: Homo sapiens, NCI-H1299, H1299 cells; 10% FCS; 72 h with compound; Alamar blue 4 h; read-out: pIC50 H1299 (converted)
# IC50 listing for each entry below

IC50 in this record for `CN1CCN(c2ccc3cc2OCCCC(=O)N2CCN(CC2)Cc2c[nH]c4ncnc(c24)N3)CC1` : > 10 µM

IC50 in this record for `CN1CCN(c2ccc3cc2OCCCC(=O)N(C)CCN(C)Cc2c[nH]c4ncnc(c24)N3)CC1` : > 10 µM

IC50 in this record for `COc1ccc2cc1CN(C(C)C)CC(=O)N(C)CCCc1c[nH]c3ncnc(c13)N2` : > 10 µM

====

# Test system: PC3
# testDetails: Cellular proliferation assay (Alamar blue), PC3
# Type: cell-based
# runConditions: Homo sapiens, PC-3, PC-3 cells; 10% FCS; 72 h with compound; Alamar blue 24 h; read-out: pIC50 PC-3 (converted)
# IC50 listing for each entry below

Reference set, count: 2
CN1CCN(C)C(=O)CCCCOc2cc(ccc2N2CCOCC2)Nc2ncnc3[nH]cc(c23)C1 [Compound 48]
> 10 µM
COc1cc2cc(c1OC)OCC(=O)N(C)CCN(C)Cc1c[nH]c3ncnc(c13)N2 [Compound 96]
> 10 µM

# ---- query compound ----
IC50 in this record for COCCN1CC(=O)N(C)CCCc2c[nH]c3ncnc(c23)Nc2ccc(OC)c(c2)C1 [Compound 36] : > 10 µM

====

# subjectOfTest: PLK4 (h) (Homo sapiens, UniProt O00444)
# testDetails: PLK-4 human kinase scintillation proximity assay (SPA)
# Type: biochemical
# runConditions: 1 μM ATP, 60 minutes at r.t., read-out: PLK4 pIC50 (converted)
# IC50 listing for each entry below

COc1ccc2cc1OCC(=O)N1CCCC(CN(C)CCCc3c[nH]c4ncnc(c34)N2)C1 (stereo not drawn) [Compound 29]
> 10 µM

IC50 in this record for COc1ccc2cc1CN(C)CCC(=O)N(C)CCCc1c[nH]c3ncnc(c13)N2 [Compound 4] : > 10 µM

IC50 in this record for COc1ccc2cc1CN(C)CCCC(=O)N(C)CCCc1c[nH]c3ncnc(c13)N2 [Compound 5] : > 10 µM

====

# Tested on: PC3
# testDetails: Cellular proliferation assay (Alamar blue), PC3
# Assay type: cell-based
# runConditions: Homo sapiens, PC-3, PC-3 cells; 10% FCS; 72 h with compound; Alamar blue 24 h; read-out: pIC50 PC-3 (converted)
# IC50 listing for each entry below

COc1ccc(NC(=O)Nc2ccc3cc2OCC(=O)N(C)CCCN(C)Cc2c[nH]c4ncnc(c24)N3)cc1
> 10 µM
COc1ccc2cc1OCCCC(=O)N(C)CCN(C)Cc1c[nH]c3ncnc(c13)N2
> 10 µM
CN1CCN(c2ccc3cc2OCCCC(=O)N2CCN(CC2)Cc2c[nH]c4ncnc(c24)N3)CC1
> 10 µM
COc1ccc2cc1OCC(=O)N1CCCC(CN(C)CCCc3c[nH]c4ncnc(c34)N2)C1 (centres unmarked)
> 10 µM
CN1CCN(c2ccc3cc2OCCCC(=O)N(C)CCCN(C)Cc2c[nH]c4ncnc(c24)N3)CC1
5.01 µM

# ---- query molecule ----
IC50 in this record for `COCCN1CC(=O)N(C)CCCc2c[nH]c3ncnc(c23)Nc2cc(c(OC)c(OC)c2)C1` : > 10 µM

====

# subjectOfTest: PLK4 (h) (Homo sapiens, UniProt O00444)
# testDetails: PLK-4 human kinase scintillation proximity assay (SPA)
# Type: biochemical
# runConditions: 1 μM ATP, 60 minutes at r.t., read-out: PLK4 pIC50 (converted)
assayReadout: IC50 (µM)

P: CN1CCCN(C)C(=O)COc2cc(ccc2N2CCOCC2)Nc2ncnc3[nH]cc(c23)C1 [Compound 85]
Q: O=C1CCCCOc2cc(ccc2N2CCOCC2)Nc2ncnc3[nH]cc(c23)CN2CCN1CC2 [Compound 121]
Lowest IC50? choose P or Q Please reply using the label of the selected record.
P

P: COc1ccc2cc1CCC(=O)N(C)CCCN(C)Cc1c[nH]c3ncnc(c13)N2 [Compound 55]
Q: CN1CCCN(C)C(=O)COc2cc(ccc2OCCSc2nccn2C)Nc2ncnc3[nH]cc(c23)C1 [Compound 143]
Please tell me which of the two, P or Q , has the higher reported IC50 value. Please reply using the label of the selected record.
P
(P: 0.794 µM, Q: 0.0631 µM)

a: COCCOCCOc1ccc2cc1OCC(=O)N(C)CCCN(C)Cc1c[nH]c3ncnc(c13)N2 [Compound 128]
b: CC(C)OCCOc1ccc2cc1OCC(=O)N(C)CCCN(C)Cc1c[nH]c3ncnc(c13)N2 [Compound 131]
c: CN1CCN(c2ccc3cc2OCCCC(=O)N(C)CCCN(C)Cc2c[nH]c4ncnc(c24)N3)CC1 [Compound 102]
d: CN1CCCN(C)C(=O)COc2cc(ccc2OC2CCOC2)Nc2ncnc3[nH]cc(c23)C1 (stereo not shown) [Compound 135]
Rank descending by IC50. // format: requested-order list of labels
c, d, b, a

1: CN1CCCN(C)C(=O)COc2cc(ccc2NC(=O)NC2CCCCC2)Nc2ncnc3[nH]cc(c23)C1 [Compound 13]
2: COc1ccc2cc1CCC(=O)N(C)CCN(C)Cc1c[nH]c3ncnc(c13)N2 [Compound 46]
Lowest IC50? choose 1 or 2 Please reply using the label of the selected record.
1

====

# Tested on: U87-MG
# testDetails: Cellular proliferation assay (Alamar blue), U87-MG
# Assay type: cell-based
# runConditions: Homo sapiens, U-87 MG; U87-MG cells; 10% FCS; 72 h with compound; Alamar blue 6 h; read-out: pIC50 U87MG (converted)
# IC50 listing for each entry below
Give the value in µM but do not write µM after it.

CN1CCCN(C)C(=O)COc2cc(ccc2OCC2CC2)Nc2ncnc3[nH]cc(c23)C1
1.58

# ---- query molecule ----
IC50 in this record for `CN1CCN(C)C(=O)COc2cccc(c2)Nc2ncnc3[nH]cc(c23)C1` : 6.31
